- ASSAY_SYSTEM: Voltage-gated inwardly rectifying potassium channel KCNH2 (Homo sapiens)
- ASSAY_INFO: Human Ether-a-go-go-Related Gene (hERG) channel small molecule antagonists: fluorescence cell-based qHTS assay (AID 1671200); further: nearly all actives have a fitted effect of over 50% in size
- CONDITIONS_USED: hERG-U2OS cells, FluxOR thallium flux fluorescence; series mostly up to 76.8 µM
Inconclusive results are not listed. The source made the active and inactive calls. The call rests on the fitted dose curve; in most records, active means well fitted inhibition curve with a large enough effect in the repeat runs; inconclusive means weak or mixed curves; inactive means flat fitted curve, though single readings scatter.
Answer with one of the outcomes given here: active, inactive

>  <MOLECULE>
CC(=O)C(Cl)Cl

>  <CLASS_NAME>
inactive

$$$$

Can you look up the reported call for "N#CCNCC#N" for me?
inactive

Can you look up the reported call for "OCCSCSCCO" for me?
inactive

Can you look up the reported call for "CC(C)CC#N" for me?
inactive

Can you look up the reported call for CC(C(=O)c1ccccc1)N(C)C (centres undefined) for me?
inactive

Can you look up the reported call for "COP(=S)(OC)Oc1c(Cl)cc(C)cc1Cl" for me?
inactive

Can you look up the reported call for "CNCC(=O)c1ccc(O)c(O)c1" for me?
inactive

Can you look up the reported call for Fc1ccc(C2(Cn3cncn3)OC2c2ccccc2Cl)cc1 (centres undefined) for me?
inactive

Can you look up the reported call for "C=CCC1=C(C)[C@@H](OC(=O)[C@@H]2[C@@H](C=C(C)C)C2(C)C)CC1=O" for me?
active

Can you look up the reported call for "COc1cccc(C(=O)NN(C(=O)c2cc(C)cc(C)c2)C(C)(C)C)c1C" for me?
inactive

Can you look up the reported call for O=c1oc2ccccc2c(O)c1C1CCCc2ccccc21 (centres undefined) for me?
inactive

* * *

- ASSAY_INFO: qHTS assay to identify small molecule agonists of the peroxisome proliferator-activated receptor delta (PPARd) signaling pathway - cell viability counter screen (AID 743211); further: nearly all actives have a fitted effect of over 55% in size
- CONDITIONS_USED: PPARd-bla HEK293H viability, CellTiter-Glo luminescence, 17 h; series mostly up to 62.6 µM
Records with an inconclusive call do not appear. Activity calls are given as the source filed them. Calls come from the whole dose curve; as a rule, active = well fitted cell-killing curve with a large enough effect in the repeat runs; inconclusive = weak or mixed curves; inactive = no such curve, though single readings can be large or run the other way.
Answer with one of the outcomes given here: active, inactive

Take a look at these entries with their results.
>  <COMPOUND>
CC1=C(C(=O)Nc2ccccc2)S(=O)(=O)CCO1

>  <CLASS_NAME>
active

$$$$
>  <COMPOUND>
CCCCOP(=O)(O)OCCCC

>  <CLASS_NAME>
inactive

$$$$
>  <COMPOUND>
CC1(C)C(=O)NC(=O)NC1=O

>  <CLASS_NAME>
inactive

$$$$

Can you look up the reported call for "O=C(N[C@H]1CN2CCC1CC2)c1cc2ccoc2cn1" for me?
inactive

Can you look up the reported call for "CC(C)CC#N" for me?
inactive

Can you look up the reported call for "CCOP(=O)(N=C1SCCS1)OCC" for me?
inactive

Can you look up the reported call for NC1=NC(=O)C(c2ccccc2)O1 (stereo not drawn) for me?
inactive

Can you look up the reported call for "CSc1nc(N=[N+]=[N-])nc(NC(C)C)n1" for me?
inactive

* * *

- ASSAY_INFO: qHTS assay for small molecule disruptors of the mitochondrial membrane potential (AID 720635)
- CONDITIONS_USED: HepG2 mitochondrial membrane potential, Mito-MPS dye ratio; series mostly up to 83.2 µM
Results filed as inconclusive are left out. Active and inactive are the calls of the source. Calls follow the shape of the dose curve; as a rule, active = well fitted inhibition curve with a large enough effect in the signal ratio in the repeat runs; inconclusive = weak or mixed curves, or effect the other way; inactive = flat fitted curve, though single readings scatter; the % refers to the signal ratio.
Answer with one of the outcomes given here: active, inactive

Take a look at these entries with their results.
>  <MOLECULE>
CS(=O)(=O)c1cc(C(F)(F)F)ccc1C(=O)c1cnoc1C1CC1

>  <CLASS_NAME>
inactive

$$$$
>  <MOLECULE>
OCCSCSCCO

>  <CLASS_NAME>
inactive

$$$$
>  <MOLECULE>
CCCCC(=O)Cl

>  <CLASS_NAME>
inactive

$$$$
>  <MOLECULE>
C=CCC1=C(C)[C@@H](OC(=O)[C@@H]2[C@@H](C=C(C)C)C2(C)C)CC1=O

>  <CLASS_NAME>
active

$$$$
>  <MOLECULE>
N#CC(CCc1ccc(Cl)cc1)(Cn1cncn1)c1ccccc1 (stereo unspecified)

>  <CLASS_NAME>
active

$$$$

Can you look up the reported call for "CCCCc1ccc(O)cc1" for me?
active

Can you look up the reported call for OC(c1ccc(F)cc1)(c1cncnc1)c1ccccc1Cl (stereo unspecified) for me?
inactive

Can you look up the reported call for "CCCCCCBr" for me?
inactive

Can you look up the reported call for "CN1C[C@@H](NS(=O)(=O)N(C)C)C[C@@H]2c3cccc4c3c(cn4C)C[C@H]21" for me?
inactive

Can you look up the reported call for "NC(=O)O" for me?
inactive

Can you look up the reported call for "Nc1cnn(-c2ccccc2)c(=O)c1Cl" for me?
inactive

Can you look up the reported call for "CCOP(=S)(OCC)SCSc1ccc(Cl)cc1" for me?
inactive

Can you look up the reported call for "C[C@]1(O)CC[C@H]2[C@@H]3CCC4=CC(=O)CC[C@]4(C)[C@@]3(F)[C@@H](O)C[C@@]21C" for me?
inactive

Can you look up the reported call for Cc1coc2c1CCC(C)C2 (stereo unspecified) for me?
active

Can you look up the reported call for "ClC(Cl)Br" for me?
inactive

Can you look up the reported call for "CCS(=O)(=O)C(C)(C)S(=O)(=O)CC" for me?
inactive

Can you look up the reported call for "CC(=O)[C@H]1CC[C@H]2[C@@H]3CC[C@H]4C[C@H](O)CC[C@]4(C)[C@H]3C(=O)C[C@]12C" for me?
inactive

Can you look up the reported call for "COc1cccc2c1cc([N+](=O)[O-])c1c(C(=O)O)cc3c(c12)OCO3" for me?
active

Can you look up the reported call for "CSc1nc(N=[N+]=[N-])nc(NC(C)C)n1" for me?
inactive

Can you look up the reported call for "Oc1c(Cl)cccc1Cl" for me?
inactive

Can you look up the reported call for CCC(Cl)[N+](=O)[O-] (stereo unspecified) for me?
inactive
